assay_method_text: Metabolic stability in human liver microsomes
Format: in vitro ADME
What 60 min remaining amount was measured for each of the following?
Return type: number; implicit unit %.

60 min remaining amount in this record for Cn1nc(C(N)=O)c2c1-c1nc(Nc3cc(N4CCN(CCO)CC4)ccc3OC(F)(F)F)ncc1CC2 : 26.5

60 min remaining amount in this record for CCc1sc(C(N)=O)c2c1-c1nc(Nc3cc(N4CCN(C)CC4)ccc3OC(F)(F)F)ncc1CC2 : 14.1

60 min remaining amount in this record for CN1CCN(c2ccc(OC(F)(F)F)c(Nc3ncc4c(n3)-c3c(c(C(N)=O)nn3CCC#N)CC4)c2)CC1 : 23.7

60 min remaining amount in this record for Cn1nc(C(N)=O)c2ccc3cnc(Nc4cc(N5CCN(CCO)CC5)ccc4OC(F)(F)F)nc3c21 : 23.3

60 min remaining amount in this record for CN1CCN(c2ccc(OC(F)(F)F)c(Nc3ncc4c(n3)-c3c(c(C(=O)NO)nn3CCF)CC4)c2)CC1 : 26.0

60 min remaining amount in this record for CN1CCN(c2ccc(OC(F)(F)F)c(Nc3ncc4c(n3)-c3c(c(C(=O)NNC(N)=O)nn3C)CC4)c2)CC1 : 70.8

---

assay_method_text: Permeability and efflux transporter substrate evaluation in Caco-2 cells
Format: in vitro ADME
Set-up: dose or concentration left out as unconfirmed
stated_conditions: human, Caco-2, pH 7.4
outcome_measure: efflux ratio at 120 min

efflux ratio at 120 min in this record for CN1CCN(c2ccc(OC(F)(F)F)c(Nc3ncc4c(n3)-c3c(c(C(=O)NO)nn3CCO)CC4)c2)CC1 [Compound 10] : > 51.7

efflux ratio at 120 min in this record for CN1CCN(c2ccc(OC(F)(F)F)c(Nc3ncc4c(n3)-c3c(c(C(=O)NS(=O)(=O)C(F)(F)F)nn3CCO)CC4)c2)CC1 [Compound 8] : > 30.3

efflux ratio at 120 min in this record for CN1CCN(c2ccc(OC(F)(F)F)c(Nc3ncc4c(n3)-c3c(c(C(=O)NN)nn3CCO)CC4)c2)CC1 [Compound 13] : > 28.6

efflux ratio at 120 min in this record for CN1CCN(c2ccc(OC(F)(F)F)c(Nc3ncc4c(n3)-c3c(c(C(N)=O)cn3CCO)CC4)c2)CC1 [Compound 2] : > 54.4

efflux ratio at 120 min in this record for CN1CCN(c2ccc(OC(F)(F)F)c(Nc3ncc4c(n3)-c3c(c(C(=O)NS(=O)(=O)C5CC5)nn3CCO)CC4)c2)CC1 [Compound 9] : > 25.4

efflux ratio at 120 min in this record for CN1C2CCC1CN(c1ccc(OC(F)(F)F)c(Nc3ncc4c(n3)-c3c(c(C(N)=O)nn3CCO)CC4)c1)C2 [Compound 23] : > 82.6

efflux ratio at 120 min in this record for CN1CCN(c2ccc(OC(F)(F)F)c(Nc3ncc4c(n3)-c3c(c(C(=O)NNC(N)=O)nn3C)CC4)c2)CC1 [Compound 12] : > 56.7

---

assay_method_text: Metabolic stability in rat liver microsomes
Assay type: in vitro ADME
stated_conditions: rat, pH 7.4
outcome_measure: half-life at 1 µM (min)
Return type: number; implicit unit min.

half-life at 1 µM in this record for CN1CCN(c2ccc(OCC(F)(F)F)c(Nc3ncc4c(n3)-c3c(c(C(N)=O)nn3CCO)CC4)c2)CC1 [Compound 24] : 53.7

half-life at 1 µM in this record for CCc1sc(C(N)=O)c2c1-c1nc(Nc3cc(N4CCN(C)CC4)ccc3OC(F)(F)F)ncc1CC2 [Compound 7] : 2.3

half-life at 1 µM in this record for CN1CCN(c2ccc(OC(F)(F)F)c(Nc3ncc4c(n3)-c3c(c(C(N)=O)nn3CCO)CC4)c2)CC1 [Onvansertib, reference compound] : 22.7

Origin of values: patent US20260176249A1
